Ref: ChEMBL document CHEMBL4680347

Tested System: Phosphatidylinositol 4,5-bisphosphate 3-kinase catalytic subunit alpha isoform (Homo sapiens)
Sequence (P42336 whole entry, canonical isoform): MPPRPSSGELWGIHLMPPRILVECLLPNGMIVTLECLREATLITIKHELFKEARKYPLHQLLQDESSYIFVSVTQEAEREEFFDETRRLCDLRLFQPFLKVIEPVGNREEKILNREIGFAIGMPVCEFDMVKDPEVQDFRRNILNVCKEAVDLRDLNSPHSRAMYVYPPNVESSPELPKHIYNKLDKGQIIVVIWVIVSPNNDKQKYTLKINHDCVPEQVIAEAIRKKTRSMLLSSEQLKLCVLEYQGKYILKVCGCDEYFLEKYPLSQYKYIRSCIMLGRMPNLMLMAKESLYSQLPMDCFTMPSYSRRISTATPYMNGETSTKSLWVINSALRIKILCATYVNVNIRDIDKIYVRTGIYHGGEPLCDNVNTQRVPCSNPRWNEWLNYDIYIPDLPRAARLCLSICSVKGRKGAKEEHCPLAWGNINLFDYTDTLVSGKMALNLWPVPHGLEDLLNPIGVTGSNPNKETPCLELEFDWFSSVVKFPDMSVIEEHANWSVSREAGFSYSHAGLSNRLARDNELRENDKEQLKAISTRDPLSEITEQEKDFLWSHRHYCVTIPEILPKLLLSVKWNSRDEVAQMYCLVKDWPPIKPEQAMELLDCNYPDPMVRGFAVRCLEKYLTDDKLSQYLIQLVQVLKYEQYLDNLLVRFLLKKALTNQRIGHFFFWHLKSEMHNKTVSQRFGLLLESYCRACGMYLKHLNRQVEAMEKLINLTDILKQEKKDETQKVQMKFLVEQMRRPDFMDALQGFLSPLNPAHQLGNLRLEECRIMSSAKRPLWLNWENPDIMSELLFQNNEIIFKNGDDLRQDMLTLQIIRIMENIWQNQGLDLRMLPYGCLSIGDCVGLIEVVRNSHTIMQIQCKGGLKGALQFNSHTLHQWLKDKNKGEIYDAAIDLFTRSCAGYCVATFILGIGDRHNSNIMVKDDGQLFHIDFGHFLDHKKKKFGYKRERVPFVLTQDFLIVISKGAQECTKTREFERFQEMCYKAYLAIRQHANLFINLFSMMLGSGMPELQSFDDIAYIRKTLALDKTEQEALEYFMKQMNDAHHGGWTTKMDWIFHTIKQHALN
Protocol Summary: Inhibition of PI3Kalpha (unknown origin) measured after 1 hr by ADP-glo plus luminescence assay
Result Type: pIC50
The quantity pIC50 is defined as the negative base-10 logarithm of the molar concentration.

For COc1ccc(S(=O)(=O)N2CCN(c3nc(NCCN4CCOCC4)nc(N4CCOCC4)n3)CC2)cc1 the molecule record lists pIC50 as 8.05

For O=[N+]([O-])c1ccc(S(=O)(=O)N2CCN(c3nc(NCCN4CCOCC4)nc(N4CCOCC4)n3)CC2)cc1 the molecule record lists pIC50 as 7.47

For O=S(=O)(c1ccccc1Cl)N1CCN(c2nc(NCCN3CCOCC3)nc(N3CCOCC3)n2)CC1 the molecule record lists pIC50 as 7.26

For Cc1ccc(S(=O)(=O)N2CCN(c3nc(NCCN4CCOCC4)nc(N4CCOCC4)n3)CC2)cc1 the molecule record lists pIC50 as 8.22

For O=S(=O)(c1ccccc1F)N1CCN(c2nc(NCCN3CCOCC3)nc(N3CCOCC3)n2)CC1 the molecule record lists pIC50 as 6.91

For O=S(=O)(c1cccc(O)c1)N1CCN(c2nc(NCCN3CCOCC3)nc(N3CCOCC3)n2)CC1 the molecule record lists pIC50 as 7.81

For COc1cccc(S(=O)(=O)N2CCN(c3nc(NCCN4CCOCC4)nc(N4CCOCC4)n3)CC2)c1 the molecule record lists pIC50 as 7.61

For Cc1cccc(S(=O)(=O)N2CCN(c3nc(NCCN4CCOCC4)nc(N4CCOCC4)n3)CC2)c1 the molecule record lists pIC50 as 7.73

For COc1ccccc1S(=O)(=O)N1CCN(c2nc(NCCN3CCOCC3)nc(N3CCOCC3)n2)CC1 the molecule record lists pIC50 as 7.40

----------
Tested on: MDA-MB-231
Protocol Summary: Anticancer activity against human […] cells assessed as inhibition of cell proliferation measured after 48 hrs by MTT assay
Type: functional, cell-based
Condition Notes: MDA-MB-231, 48 h
Result Type: pIC50
The quantity pIC50 is defined as the negative base-10 logarithm of the molar concentration.

Assay MDA-MB-231, sample O=S(=O)(c1ccc(O)cc1)N1CCN(c2nc(NCCN3CCOCC3)nc(N3CCOCC3)n2)CC1 , pIC50 read: 4.80

----------
Tested on: HepG2
Protocol Summary: Anticancer activity against human HepG2 cells assessed as inhibition of cell proliferation measured after 48 hrs by MTT assay
Type: functional, cell-based
Condition Notes: HepG2, 48 h
Result Type: pIC50
The quantity pIC50 is defined as the negative base-10 logarithm of the molar concentration.

For O=S(=O)(c1ccc(O)cc1)N1CCN(c2nc(NCCN3CCOCC3)nc(N3CCOCC3)n2)CC1 the molecule record lists pIC50 as 4.91

----------
Tested System: Serine/threonine-protein kinase mTOR (Homo sapiens, UniProt P42345)
Result Type: pIC50
The quantity pIC50 is defined as the negative base-10 logarithm of the molar concentration.

For O=S(=O)(c1ccccc1)N1CCN(c2nc(NCCN3CCOCC3)nc(N3CCOCC3)n2)CC1 the compound record lists pIC50 as 7.15

For COc1cccc(S(=O)(=O)N2CCN(c3nc(NCCN4CCOCC4)nc(N4CCOCC4)n3)CC2)c1 the compound record lists pIC50 as 7.65

For O=S(=O)(c1ccc(F)cc1)N1CCN(c2nc(NCCN3CCOCC3)nc(N3CCOCC3)n2)CC1 the compound record lists pIC50 as 7.45

For O=S(=O)(c1ccc(O)cc1)N1CCN(c2nc(NCCN3CCOCC3)nc(N3CCOCC3)n2)CC1 the compound record lists pIC50 as 8.07

For O=S(=O)(c1cccc(F)c1)N1CCN(c2nc(NCCN3CCOCC3)nc(N3CCOCC3)n2)CC1 the compound record lists pIC50 as 7.03

For O=S(=O)(c1ccccc1F)N1CCN(c2nc(NCCN3CCOCC3)nc(N3CCOCC3)n2)CC1 the compound record lists pIC50 as 7.01

For COc1ccccc1S(=O)(=O)N1CCN(c2nc(NCCN3CCOCC3)nc(N3CCOCC3)n2)CC1 the compound record lists pIC50 as 7.59

For O=[N+]([O-])c1ccc(S(=O)(=O)N2CCN(c3nc(NCCN4CCOCC4)nc(N4CCOCC4)n3)CC2)cc1 the compound record lists pIC50 as 7.38

----------
Field: pIC50. Provide a value for each of the compounds that follow.
Tested System: Phosphatidylinositol 4,5-bisphosphate 3-kinase catalytic subunit alpha isoform (Homo sapiens)
Protocol Summary: Inhibition of PI3Kalpha (unknown origin) measured after 1 hr by ADP-glo plus luminescence assay
The quantity pIC50 is defined as the negative base-10 logarithm of the molar concentration.

For O=S(=O)(c1ccc(Cl)cc1)N1CCN(c2nc(NCCN3CCOCC3)nc(N3CCOCC3)n2)CC1 the compound record lists pIC50 as 7.51

For O=[N+]([O-])c1ccccc1S(=O)(=O)N1CCN(c2nc(NCCN3CCOCC3)nc(N3CCOCC3)n2)CC1 the compound record lists pIC50 as 7.37

For O=S(=O)(c1ccc(O)cc1)N1CCN(c2nc(NCCN3CCOCC3)nc(N3CCOCC3)n2)CC1 the compound record lists pIC50 as 8.47

For O=[N+]([O-])c1cccc(S(=O)(=O)N2CCN(c3nc(NCCN4CCOCC4)nc(N4CCOCC4)n3)CC2)c1 the compound record lists pIC50 as 7.41

For O=S(=O)(c1ccccc1)N1CCN(c2nc(NCCN3CCOCC3)nc(N3CCOCC3)n2)CC1 the compound record lists pIC50 as 7.39

For O=S(=O)(c1cccc(Cl)c1)N1CCN(c2nc(NCCN3CCOCC3)nc(N3CCOCC3)n2)CC1 the compound record lists pIC50 as 7.43

For O=S(=O)(c1cccc(F)c1)N1CCN(c2nc(NCCN3CCOCC3)nc(N3CCOCC3)n2)CC1 the compound record lists pIC50 as 6.96

For O=S(=O)(c1ccc(F)cc1)N1CCN(c2nc(NCCN3CCOCC3)nc(N3CCOCC3)n2)CC1 the compound record lists pIC50 as 7.06

For Cc1ccccc1S(=O)(=O)N1CCN(c2nc(NCCN3CCOCC3)nc(N3CCOCC3)n2)CC1 the compound record lists pIC50 as 7.49

For O=S(=O)(c1ccccc1O)N1CCN(c2nc(NCCN3CCOCC3)nc(N3CCOCC3)n2)CC1 the compound record lists pIC50 as 7.67

----------
Tested System: Phosphatidylinositol 4,5-bisphosphate 3-kinase catalytic subunit gamma isoform (Homo sapiens, UniProt P48736)
Sequence (P48736 whole entry, canonical isoform): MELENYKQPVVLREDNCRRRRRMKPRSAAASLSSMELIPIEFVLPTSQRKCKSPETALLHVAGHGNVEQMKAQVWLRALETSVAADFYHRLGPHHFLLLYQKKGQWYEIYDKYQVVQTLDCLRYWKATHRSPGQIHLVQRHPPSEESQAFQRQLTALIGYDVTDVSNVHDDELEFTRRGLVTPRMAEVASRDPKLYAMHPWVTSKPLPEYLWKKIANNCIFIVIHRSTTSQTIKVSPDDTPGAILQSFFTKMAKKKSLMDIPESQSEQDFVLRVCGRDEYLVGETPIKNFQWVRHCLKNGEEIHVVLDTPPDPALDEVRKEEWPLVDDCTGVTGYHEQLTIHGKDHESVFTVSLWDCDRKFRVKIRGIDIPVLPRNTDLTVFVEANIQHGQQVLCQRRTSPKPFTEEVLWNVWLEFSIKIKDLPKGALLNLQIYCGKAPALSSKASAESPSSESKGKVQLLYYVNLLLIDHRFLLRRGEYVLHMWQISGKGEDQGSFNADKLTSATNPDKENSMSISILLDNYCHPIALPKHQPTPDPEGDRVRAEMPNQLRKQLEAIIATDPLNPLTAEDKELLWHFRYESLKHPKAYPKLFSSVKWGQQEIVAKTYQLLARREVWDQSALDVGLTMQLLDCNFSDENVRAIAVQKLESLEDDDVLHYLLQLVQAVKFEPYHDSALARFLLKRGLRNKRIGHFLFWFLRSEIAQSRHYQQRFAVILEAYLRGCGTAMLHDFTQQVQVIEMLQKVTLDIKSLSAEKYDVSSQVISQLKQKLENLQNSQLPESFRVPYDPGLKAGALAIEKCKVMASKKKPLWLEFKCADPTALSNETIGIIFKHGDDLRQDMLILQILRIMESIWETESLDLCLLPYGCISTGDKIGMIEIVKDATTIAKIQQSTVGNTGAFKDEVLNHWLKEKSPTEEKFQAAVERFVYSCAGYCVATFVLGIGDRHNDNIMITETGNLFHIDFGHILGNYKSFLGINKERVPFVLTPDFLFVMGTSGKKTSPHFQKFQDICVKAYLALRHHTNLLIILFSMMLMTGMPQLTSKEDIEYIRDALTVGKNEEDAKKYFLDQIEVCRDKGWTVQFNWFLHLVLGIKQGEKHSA
Protocol Summary: Inhibition of PI3Kgamma (unknown origin) measured after 1 hr by ADP-glo plus luminescence assay
Result Type: IC50

For O=S(=O)(c1ccc(O)cc1)N1CCN(c2nc(NCCN3CCOCC3)nc(N3CCOCC3)n2)CC1 the compound record lists IC50 as 24.6 nM
